- system: ScCyk3
- assay_name: SPOT peptide array binding signal intensity (averaged, normalized) (arbitrary units (background-subtracted, floor 0; scale differs between SH3 domains)); higher = stronger binding of the SH3 domain to the peptide
Please respond with reported SPOT peptide array binding signal intensity for every item in the list.
Give bare numbers.

Below are worked cases with known answers.
{"columns": ["binder", "reported_result"],
 "data": [
  ["NRLRKRLNLPSEISI", 140],
  ["RTIRKLPLMSLSEYF", 28.5],
  ["RKRAPTPPAPSRSEK", 9.5],
  ["VRTRRRPPPPPIPST", 20.5],
  ["FIRKRAPTPPAPSRS", 46]
]}

Continue with the next binder.
-- ask Item NMLSRPRLAKLPSIR has what recorded SPOT peptide array binding signal intensity?
-- reply 35

Data origin, for the record: the supplement of paper PMC4466140
